system: TO-N3 (biotin conjugate); assay: pull-down binding Z-score (relative to library population); higher = stronger binding; details: RNA library: Library-2
sequences and their reported pull-down binding Z-score
PROPERTY LABEL: pull-down binding Z-score

[[record]]
sequence_record = "GUCUAGCUGUCCACGAGUGCUUUGUUAAGCGUGUUGACUGGAC"
tgt = "TO-N3 (biotin conjugate)"
recorded_result = -0.138

[[record]]
sequence_record = "CACGUGCUGCUUGUAUAGACAUGAG [hsa-mir-3659]"
tgt = "TO-N3 (biotin conjugate)"
recorded_result = 1.11

[[record]]
sequence_record = "GAAAAUGACUCUAAAGAGGGUUUUUUC [SHAPE_invitro_SARS-CoV-2_Motif_382]"
tgt = "TO-N3 (biotin conjugate)"
recorded_result = -0.18

[[record]]
sequence_record = "GAGCUGCCCUGUCGGUGAAGCUC [IAV_invivo_NA_6_Motif_6+IAV_invivo_NA_6_Motif_6]"
tgt = "TO-N3 (biotin conjugate)"
recorded_result = 0.217

[[record]]
sequence_record = "ACCAUUCUUCGUAAGGGUGGU"
tgt = "TO-N3 (biotin conjugate)"
recorded_result = -0.223

[[record]]
sequence_record = "ACCUAAAUAGAGGU"
tgt = "TO-N3 (biotin conjugate)"
recorded_result = -1.22


###

system: TO-N3 (biotin conjugate); test: pull-down binding Z-score (relative to library population); higher = stronger binding; conditions: RNA library: Library-2
PROPERTY LABEL: pull-down binding Z-score

[[record]]
sequence_record = "UGCUGGAGAAGUGUUU [hsa-mir-557]"
property_label = "pull-down binding Z-score"
recorded_result = 0.49

[[record]]
sequence_record = "UGAUAGUCAACAAACUGUUGGUCAACAAGACGGCAGUGAGGACAAUCA"
property_label = "pull-down binding Z-score"
recorded_result = 0.595

[[record]]
sequence_record = "CACAGAAAAGUACUGUG [SHAPE_invivo_SARS-CoV-2_Motif_52]"
property_label = "pull-down binding Z-score"
recorded_result = 0.891

[[record]]
sequence_record = "UCUGCUUUGAUGAAAUAAAGCAGA [hsa-mir-4773-2]"
property_label = "pull-down binding Z-score"
recorded_result = -0.206

[[record]]
sequence_record = "AGGUUGGUAUGCAAAAGUAUUCUACACUCCAGGGACCACCUGGUACUGGUAAGAGUCAUUUUGCUAUUGGCCU"
property_label = "pull-down binding Z-score"
recorded_result = -0.418

[[record]]
sequence_record = "CAAAACUCCGUACAUUGCUAUUUUGC [hsa-mir-3064]"
property_label = "pull-down binding Z-score"
recorded_result = -0.39

[[record]]
sequence_record = "UGAUGCGUAUUAUGACAUGGUUGGAUAUGGUUGAUACUAGUUUGUCUGGUUUUAAGCUAAAAGACUGUGUUAUGUAUGCAUCA"
property_label = "pull-down binding Z-score"
recorded_result = -0.861

[[record]]
sequence_record = "GCUCUCUGAUGC [IAV_invivo_NP_5_Motif_10+IAV_invivo_NP_5_Motif_10]"
property_label = "pull-down binding Z-score"
recorded_result = -0.672

[[record]]
sequence_record = "GCUUGCAUACGUAGACCAUUCUUAUGUUGUAAAUGCUGUUACGACCAUGUCAUAUCAACAUCACAUAAAUUAGUCUUGUCUGUUAAUCCGUAUGUUUGCAAUGC [DMSMaPseq_invitro_SARS-CoV-2_Motif_294]"
property_label = "pull-down binding Z-score"
recorded_result = -0.546

[[record]]
sequence_record = "AUUAGACAGAAAAAAGUUAGACACAAAAAAUUGUGUCUAAU [hsa-mir-4759]"
property_label = "pull-down binding Z-score"
recorded_result = 0.136

[[record]]
sequence_record = "CUGUGCUGUCUCUGAGCACCG [hsa-mir-6827]"
property_label = "pull-down binding Z-score"
recorded_result = 0.322

[[record]]
sequence_record = "UUUUUGCAUUACGUUCUAUGGCAAAA [hsa-mir-548g]"
property_label = "pull-down binding Z-score"
recorded_result = -0.182

[[record]]
sequence_record = "ACAGAGACUGAUAGUAAGUUCUCUGU [IAV_invivo_NA_6_Motif_16+IAV_invivo_NA_6_Motif_16]"
property_label = "pull-down binding Z-score"
recorded_result = -0.696

[[record]]
sequence_record = "AGUGGUGCAAUCUCAGUUCACU [hsa-mir-3135a]"
property_label = "pull-down binding Z-score"
recorded_result = -0.0142

[[record]]
sequence_record = "GGAAUUGCAAUGUCGAUAGAUAUCCUGCUAAUUCC [DMSMaPseq_invitro_SARS-CoV-2_Motif_342]"
property_label = "pull-down binding Z-score"
recorded_result = -0.229

[[record]]
sequence_record = "AUAUAAGGGAAGGCAUUAUAG [hsa-mir-3117]"
property_label = "pull-down binding Z-score"
recorded_result = 0.0219

[[record]]
sequence_record = "GAAUUUACACCUUUUGAUGUUGUUAGACAAUGCUCAGGUGUUACUUUC"
property_label = "pull-down binding Z-score"
recorded_result = 0.0292

[[record]]
sequence_record = "GCCUUUCAACAUAAUGGC [hsa-mir-548w]"
property_label = "pull-down binding Z-score"
recorded_result = -0.352

[[record]]
sequence_record = "GUCAUUUUUCUGUGACUGCACAUGGC [hsa-mir-3136]"
property_label = "pull-down binding Z-score"
recorded_result = -0.215


###

tested on: TO-3-N3 (biotin conjugate); experiment: pull-down binding Z-score (relative to library population); higher = stronger binding; details: RNA library: Library-2
PROPERTY LABEL: pull-down binding Z-score

[[record]]
sequence_record = "AGUAUUUUAAUCAUAGAUUGUAUUUAGUUAGUUUUUAAUACU [hsa-mir-4637]"
recorded_result = -0.732

[[record]]
sequence_record = "UCUCUCUCAUUUUGUUAACUUAGACAACCUGAGAGCUAAUAACACUAAAGGUUCAUUGCCUAUUAAUGUUAUAGUUUUUGAUGGUAAAUCAAAAUGUGAAGA [DMSMaPseq_invitro_SARS-CoV-2_Motif_146]"
recorded_result = -0.765

[[record]]
sequence_record = "CCAGGUUCCAUGUGAUGCUGAA [hsa-mir-6806]"
recorded_result = -0.162

[[record]]
sequence_record = "CAGGCGGGGCAGCCCAAUGCCAUGGGCCUGAU [hsa-mir-4695]"
recorded_result = 0.737

[[record]]
sequence_record = "AAGUAAUUGUUUCUAAUGUACU [hsa-mir-412]"
recorded_result = -0.549

[[record]]
sequence_record = "AAUCCCUCUCUUUCUAGUUCUUCCUAGAGUGAGGAAAA [hsa-mir-320b-1]"
recorded_result = -0.294

[[record]]
sequence_record = "UCUGACAGUCCAUGUGAGUCUCAUGGAAAACAAGUAGUGUCAGA [SHAPE_invivo_SARS-CoV-2_Motif_364]"
recorded_result = -0.582

[[record]]
sequence_record = "GACCCUAAGACUAAAAAUGUUACAAAAGAAAAUGACUCUAAAGAGGGUUUUUUCACUUACAUUUGUGGGUU"
recorded_result = -0.131


###

tested on: TO-3-N3-2 (biotin conjugate); experiment: pull-down binding Z-score (relative to library population); higher = stronger binding; details: RNA library: Library-2
PROPERTY LABEL: pull-down binding Z-score

[[record]]
sequence_record = "CAUGUGGUAGUGUUGGUUUUAACAUAGAUUAUGACUGUGUCUCUUUUUGUUACAUGCACCAUAUG"
tgt = "TO-3-N3-2 (biotin conjugate)"
property_label = "pull-down binding Z-score"
recorded_result = 0.0495

[[record]]
sequence_record = "AUUGUACUGUGGUGGUUACAAU [hsa-mir-34b]"
tgt = "TO-3-N3-2 (biotin conjugate)"
property_label = "pull-down binding Z-score"
recorded_result = -0.429

[[record]]
sequence_record = "AGUGAGUUGAUUACUUCUCACU [hsa-mir-4676]"
tgt = "TO-3-N3-2 (biotin conjugate)"
property_label = "pull-down binding Z-score"
recorded_result = -0.441

[[record]]
sequence_record = "UGUCAUUACUUUCAAUGGCA [hsa-mir-548h-2]"
tgt = "TO-3-N3-2 (biotin conjugate)"
property_label = "pull-down binding Z-score"
recorded_result = -0.4

[[record]]
sequence_record = "AGUCAGACAAAUCGCUCCAGGGCAAACUGGAAAGAUUGCUGAUU"
tgt = "TO-3-N3-2 (biotin conjugate)"
property_label = "pull-down binding Z-score"
recorded_result = 0.0858

[[record]]
sequence_record = "CCUUGCCUGUGGCAAGACCACUUCGGUUCAAGG [hsa-mir-4295]"
tgt = "TO-3-N3-2 (biotin conjugate)"
property_label = "pull-down binding Z-score"
recorded_result = -0.191

[[record]]
sequence_record = "GCCUCGCUUCCUGCCGGCGCGGC [hsa-mir-1538]"
tgt = "TO-3-N3-2 (biotin conjugate)"
property_label = "pull-down binding Z-score"
recorded_result = -0.601

[[record]]
sequence_record = "GUGGGUUGUGAGGACUGAGGCCAGACCCAC [hsa-mir-181d]"
tgt = "TO-3-N3-2 (biotin conjugate)"
property_label = "pull-down binding Z-score"
recorded_result = -0.244

[[record]]
sequence_record = "GAGUGCUAUCUAACCUUAACUUGCCUGGUUGUGAUGGUGGCAGUUUGUAUGUAAAUAAACAUGCAUUCCACACACCAGCUUUUGAUAAAAGUGCUU [DMSMaPseq_invitro_SARS-CoV-2_Motif_343]"
tgt = "TO-3-N3-2 (biotin conjugate)"
property_label = "pull-down binding Z-score"
recorded_result = -0.487

